Reported values of apparent KD of MS2 coat protein for individual entries
Tested on: MS2 coat protein
method: apparent KD of MS2 coat protein; designed switch direction (-1 OFF switch, 1 ON switch): -1; higher = weaker reporter binding
testConditions: input ligand: none
quantityName: apparent KD of MS2 coat protein (nM)

entrySequence | testedTarget | quantityName | experimentalResult
GUGCCGCGAGGAUAUACAGACGGGUCCAGGGCGUGUCUCGGACUUGAGGAUCACCCAAGUAGAAGGCGUCUCAG [salish99_ex2_r4_615] (Eterna round: R97, puzzle: Exclusion 2) | MS2 coat protein | apparent KD of MS2 coat protein | 26.7
CGAUAAAUGACAGGAUAUUACGCUAAUUGGGACCCUUAACCGACAUGAGGAUCACCCAUGUUUUAUAAGAAGGGUCGUUUGUCA [Eternabot solution 47] (Eterna round: R96, puzzle: Exclusion NG 2) | MS2 coat protein | apparent KD of MS2 coat protein | 13.2
UUUACAAGCUAUAGAUCCCACAUGAGGAUCACCCAUGUUCCUGGCCGUGAGGCUAGGUAAACUAUUGCUCGUCUUAU [JL TOV1 3.66] (Eterna round: R97, puzzle: Sensor, turn-off variant 1) | MS2 coat protein | apparent KD of MS2 coat protein | 294
CGUACAAGCUUACUAUAGGACAUGAGGAUCACCCAUGUAAUUGACGUUGCAUACAAUCCGUGGAUCCCGGCUGCUCG [Eternabot (L1) Solution 15] (Eterna round: R97, puzzle: Sensor, turn-off variant 1) | MS2 coat protein | apparent KD of MS2 coat protein | 51.6
GCUCACGCAGGAUAUACAUGAGGAUCACCCAUGUUCGAAGGGCGCGGGUACAAAGUCUGUAGAAGGGCGAAAAU [Getiin] (Eterna round: R97, puzzle: Exclusion 3) | MS2 coat protein | apparent KD of MS2 coat protein | 19.8
UUACCUAGUGUUAGGAUAUGCGACGGGUGACCGUUGCAGAAGGAACAUGAGGAUCACCCAUGUUUAAUAAAAUC [JL-BMX4-4.45 ViennaUCT mod] (Eterna round: R97, puzzle: Brourd's mod of Exclusion 4) | MS2 coat protein | apparent KD of MS2 coat protein | 12.6
UCGCUCCGUGUAGGAUAUCGCCGUACUAUACGGCGAGAAGGACAUGAGGAUCACCCAUGUAUGUUAUUAUCACGCGUGGCGCAA [Design 60] (Eterna round: R96, puzzle: Exclusion NG 1) | MS2 coat protein | apparent KD of MS2 coat protein | 22.2
AUUUUGUGAGGAUAUUAGUUGUAGAAAAUUAUUAGUUUAGCUGAGAAGGCACAUGAGGAUCACCCAUGUAAAUC [JR_Ex4_Sub043] (Eterna round: R97, puzzle: Exclusion 4) | MS2 coat protein | apparent KD of MS2 coat protein | 18.6
AGUUGGGCAGGAUAUACAUGAGGAUCACCCAUGUGAGAGAUACUAGUGAGGUCGAUUAGUAGAAGGGCCUGACA [Mat X3R4 m2] (Eterna round: R97, puzzle: Exclusion 3) | MS2 coat protein | apparent KD of MS2 coat protein | 40.9
CGCAGACAUGAGGAUCACCCAUGUCAGGAUAUACCUCAUAGCACCAGCUUAUGUAAGGGUAGAAGGGACUUGGA [Eternabot (L1) Solution 81] (Eterna round: R97, puzzle: Exclusion 1) | MS2 coat protein | apparent KD of MS2 coat protein | 56.8

Values from the supplement of paper PMC9170038
